Values were extracted from the supplement of paper PMC10567573.

Assign protein stability index to each entry below.
B1: PBXIP1 (parent)
chain: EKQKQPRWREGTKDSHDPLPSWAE

variants of: B1; assay: protein stability index of a GFP-peptide fusion (GPS, HEK-293T) (PSI 1-6); higher = more stable; conditions: c terminus: a fixed tail appended;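 also: lentivirally expressed fusions sorted by FACS into six bins by GFP to DsRed ratio, PSI derived from sequencing read proportions per bin multiplied by bin number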
One number for each entry.

[[record]]
mutation = "H16S"
property_name = "protein stability index"
quantitative_readout = 2.56

[[record]]
mutation = "R7F"
property_name = "protein stability index"
quantitative_readout = 2.54

[[record]]
mutation = "E24M"
property_name = "protein stability index"
quantitative_readout = 3.16

[[record]]
mutation = "W8G"
property_name = "protein stability index"
quantitative_readout = 2.04

[[record]]
mutation = "D14C"
property_name = "protein stability index"
quantitative_readout = 1.1


For every record below, what is its protein stability index?
1. W22H
2. E10G

# output
1. 5.32
2. 1.05
